- assay-system: β-amyloid peptide β1-40 (polypeptide corresponding to the first 40 amino acids of β-amyloid)
- protocol-details: cell-based or functional assay
Bridge positions count the residues as written; N and C are the ends. Square brackets hold non-standard residues; d marks the D form. Ends that are not written are not given here. NMeF = CN[C@@H](Cc1ccccc1)C(=O)O; pGlu = O=C1CC[C@@H](C(=O)O)N1; Sar = CNCC(=O)O
Hi there, I'd appreciate the recorded Therapeutic Efficacy (%) for every entry that follows.
One number for each entry, in %.

Record excerpt, results attached:
QFFGLM [Sub P (6-11)]
65
RPKPQQFFGLX (nor-leucine at position 11) [[Nle^11]-Sub P]
77
FFGLM [Sub P (7-11)]
41

List reported Therapeutic Efficacy (%) for each of these binders:
1. RPKPQQFFGLM-OH [Sub P, Free Acid]
2. RPKPQQF [Substance P (1-7)]
3. [pGlu]QF[NMeF][Sar]LM (ends and bridges not checked) [[pGlu^5, Me-Phe^8, Sar^9]-Sub P (5-11)]
4. RPCPQCFYPLM (disulfide 3-6; ends not checked) [[Cys^3,6, Tyr^8, Pro^9]-Sub P]

Completion:
1: 53; 2: 82; 3: 41; 4: 53

Report Therapeutic Efficacy (%) for each item below.
1. RPKPQQFFGLM-NH2 [Substance P]
2. RPKPQQFFGLM-OMe [Sub P, Methyl Ester]

Completion:
[100, 71]
